measured.target: T1, huFLT3-T227 stably expressed on Ramos cells (human, UniProt P36888 27-993)
T1 construct: whole, on cells; also called FLT3 WT
protocol.summary: FACS on cells
reported.property: FACS geometric mean fold change over Jurkat parental

Please fill in: FACS geometric mean fold change over Jurkat parental reported for Polypeptide No. 284 (scFv, V domains shown, scFv) VH: QVQLVQSGAEVKKPGASVKVSCKASGYTFTSYYMHWVRQAPGQGLEWMGVINPSGGSTTYAQKFQGRVTMTRDTSTSTVYMELSSLRSEDTAVYYCARVPGVSPGDYGMDVWGQGTTVTVSS VL: DIQMTQSPSSLSASVGDRVTITCRASHNISTWLAWYQQKPGKAPKLLIYAASSLQSGVPSRFSGSGSGTDFTLTISSLQPEDFATYYCQQSYSTPPTFGQGTRLEIKR = > 30 fold

Please fill in: FACS geometric mean fold change over Jurkat parental reported for Polypeptide No. 241 (scFv, V domains shown, scFv) VH: QVQLVQSGAEVKKPGASVKVSCKASGYTFTRHYVHWVRQAPGQGLEWMGIINPSGGSTSYAQKFQGRVTMTRDTSTSTVYMELSSLRSEDTAVYYCARSYHHYYYGMDVWGQGTTVTVSS VL: DIQMTQSPSSLSASVGDRVTITCRASQSISNYLAWYQQKPGKAPKLLIYAASSLQGGVPSRFSGSGSGTDFTLTISSLQPEDFATYYCQQSYSTPWTFGQGTKVEIKR = 10 to 30 fold

Please fill in: FACS geometric mean fold change over Jurkat parental reported for Polypeptide No. 247 (scFv, V domains shown, scFv) VH: QVQLVQSGAEVKKPGASVKVSCKASGGTLMSYAISWVRQAPGQGLEWMGIINPRGGTTRYAQKFQGRVTMTRDTSTSTVYMELSSLRSEDTAVYYCARSEDSGYDYLDYWGQGTLVTVSS VL: EIVMTQSPATLSVSPGERATLSCRGSQSISGNYLAWYQQKPGQAPRLLIYDTSARAAGIPARFSGSGSGTEFTLTISSLQSEDFAVYYCQQYNSYPLTFGGGTKVEIKR = 2 to 10 fold

Please fill in: FACS geometric mean fold change over Jurkat parental reported for Polypeptide No. 228 (scFv, V domains shown, scFv) VH: QVQLVQSGAEVKKPGASVKVSCKASGGTFSSHAISWVRQAPGQGLEWMGWINPGSGGTNYAQKFQGRVTMTRDTSTSTVYMELSSLRSEDTAVYYCAKDSYDFWSGYYIDYWGQGTLVTVSS VL: DIQMTQSPSSLSASVGDRVTITCRASQSIYTHLNWYQQKPGKAPKLLIYAASRLQTGVPSRFSGSGSGTDFTLTISSLQPEDFATYYCQQSYSFPFTFGPGTKVDIKR = > 30 fold

Please fill in: FACS geometric mean fold change over Jurkat parental reported for Polypeptide No. 235 (scFv, V domains shown, scFv) VH: QVQLVQSGAEVKKPGASVKVSCKASGYTFTGYYMHWVRQAPGQGLEWMGIINPSGGSTSYAQKFQGRVTMTRDTSTSTVYMELSSLRSEDTAVYYCARDPGRLGELDYWGQGTLVTVSS VL: EIVMTQSPATLSVSPGERATLSCRASQSVSSNLAWYQQKPGQAPRLLIYGASTRATGIPARFSGSGSGTEFTLTISSLQSEDFAVYYCQQYGSSPLTFGGGTKVEIKR = > 30 fold
